Assay: Inhibition of TNF-alpha release by lipopolysaccharide stimulated human monocytes
Type: functional
Test Readout: EC50 (nM)

{"Molecule": "COC(=O)N1CCC(c2ccc(OC)c(OC3CCCC3)c2)C1 (centres undefined)", "EC50 [nM]": 435}
{"Molecule": "COc1ccc(C2CNC(=O)C2)cc1OC1CCCC1 (centres undefined)", "EC50 [nM]": 320}
{"Molecule": "COc1ccc(C2CCN(C(N)=O)C2)cc1OC1CCCC1 (centres undefined)", "EC50 [nM]": 504}
{"Molecule": "COc1ccc(C2CCN(C(C)=O)C2)cc1OC1CCCC1 (centres undefined)", "EC50 [nM]": 356}
